# ASSAY_EXPLANATION: Traction reflex deficit (ataxia) in mice
# PROTOCOL_CONDITIONS: mouse, in vivo, ip, I.P., read-out: TD50 - Traction Reflex Deficit, I.P. (dose which produced the deficit in 50% of animals tested)
MEASURED_PROPERTY: TD50
Kindly format the answer as number then unit.

[
  {
    "MOLECULE": "CC12CN(CCc3ccccn3)C(Cc3ccccc31)c1ccccc12 (stereo not drawn) [Example 2]",
    "MEASURED_PROPERTY": "TD50",
    "TEST_VALUE": "67 mg/kg"
  },
  {
    "MOLECULE": "COc1ccc2c(c1)[C@]13CCCC[C@@H]1[C@H](C2)N(C)CC3 [Dextromethorphan, reference compound]",
    "MEASURED_PROPERTY": "TD50",
    "TEST_VALUE": "45 mg/kg"
  },
  {
    "MOLECULE": "Cc1cccc(CCN2CC3(C)c4ccccc4CC2c2ccccc23)n1 (stereo not drawn) [Example 8]",
    "MEASURED_PROPERTY": "TD50",
    "TEST_VALUE": "68 mg/kg"
  }
]

Query (molecule): CC12CN(CCc3cnccn3)C(Cc3ccccc31)c1ccccc12 (stereo not drawn) [Example 4] ; field requested: TD50 30 mg/kg

Could you tell me which TD50 is on file for CC12CN(CCc3ccncc3)C(Cc3ccccc31)c1ccccc12 (stereo not drawn) [Example 3] ? 83 mg/kg

Dear colleague, I am looking for the recorded TD50 of the following molecule: CN1CC2(C)c3ccccc3CC1c1ccccc12 (stereo not drawn) [Example 1] 13 mg/kg

TD50 for C[C@]12N[C@H](Cc3ccccc31)c1ccccc12 [MK-801, reference compound] ? 0.17 mg/kg

Find the recorded TD50 belonging to c1ccc(C2(N3CCCCC3)CCCCC2)cc1 [PCP, phencyclidine, reference compound] and report it. 2.7 mg/kg

Consider the molecule CN1CC[C@@]23CCCC[C@@H]2[C@@H]1Cc1ccc(O)cc13 [Dextrorphan, dextrorphan, reference compound] and give its measured TD50. 29 mg/kg
